method_summary: Clearance in guinea pig at 20 mg/kg, po or 5 mg/kg, iv
Assay type: ADME, organism-based, Cavia porcellus
run_conditions: in vivo
assay_metric: clearance (mL/min/kg)
Answer with a number only, understood to be in mL/min/kg.

Q: Requested field: clearance. Item: CCOc1c2c(c(OCC)c3ncccc13)CN(c1ccc(CS(=O)(=O)[N-]C(=O)Cc3ccccc3OC)cc1C)C2=O.[Na+]
A: 3.6

* * *

method_summary: Half life in dog at 5 mg/kg, iv
Type: ADME, organism-based, Canis lupus familiaris
Design: dose 5 mg/kg, route intravenous
run_conditions: in vivo
assay_metric: half-life

Q: Report half-life for COc1cccc(OC)c1C1(C(=O)[N-]S(=O)(=O)Cc2ccc(N3Cc4c(c(OCC(F)(F)F)c5cccnc5c4OCC(F)(F)F)C3=O)c(C)c2)CC1.[Na+] please.
A: 13.2 h
